Target: CYP1A2 (Homo sapiens, UniProt P05177)
Sequence (P05177 whole entry): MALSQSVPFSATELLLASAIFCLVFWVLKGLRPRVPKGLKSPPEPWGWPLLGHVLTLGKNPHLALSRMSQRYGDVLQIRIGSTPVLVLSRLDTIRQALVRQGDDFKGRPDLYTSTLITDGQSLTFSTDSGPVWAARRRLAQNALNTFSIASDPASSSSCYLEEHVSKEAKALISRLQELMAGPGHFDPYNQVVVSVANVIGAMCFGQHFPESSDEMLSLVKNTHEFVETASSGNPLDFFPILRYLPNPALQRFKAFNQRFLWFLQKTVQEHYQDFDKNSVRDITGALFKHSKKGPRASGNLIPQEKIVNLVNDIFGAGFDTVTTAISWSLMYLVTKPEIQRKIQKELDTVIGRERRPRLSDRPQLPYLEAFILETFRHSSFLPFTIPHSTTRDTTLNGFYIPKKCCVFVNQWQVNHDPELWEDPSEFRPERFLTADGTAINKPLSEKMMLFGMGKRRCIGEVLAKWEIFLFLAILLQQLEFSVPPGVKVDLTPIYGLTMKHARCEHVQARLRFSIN
Assay: Inhibition of human liver microsome CYP1A2 using phenacetin as substrate assessed as residual activity at 1 uM
Type: ADME
Conditions: human liver microsomes, probe phenacetin, read-out: Activity
experimental-readout: activity at 1 µM

Return reported activity at 1 µM; argument: Cc1cc(OC[C@@H]2CCN2)on1 < 70%

----------
Assay: Metabolic stability in human liver microsomes assessed as unchanged parent compound at 1 uM after 60 mins
Assay type: ADME, Microsome
Conditions: read-out: Stability
experimental-readout: remaining at 1 h, 1 µM (%)
# number only, unit % dropped from output

// remaining at 1 h, 1 µM lookup, key: Cc1cc(OC[C@@H]2CCN2)on1 53.4
